This collection of values is drawn from patent US20260258115A1.

target: RSV prefusion F (preF), subtype A (respiratory syncytial virus, subtype A, UniProt P03420 26-513); experiment: BLI, IgG
readout-label: pKd
# log scale: pKd equals minus log10 of the concentration in mol/L

IN: Let me know recorded pKd for ADI-20969 (antibody, V domains shown) VH: EVQLVESGGGLVKPGGSLRLSCAASGFKFSSYTMNWVRQAPGKGLEWVSSVSASSSYIFYADSVQGRFIISRDNAQNSLYLQMNSLRADDTAVYYCARDQYGPGHYYNPAWFDPWGQGTLVTVSS VL: QPVLTQPPSVSGAPGQRVTISCTGTSSNIGAGYDVHWYKQLPGTAPKVLIYGNTNRPSGIPDRFSGSKSGTSASLAITGLKAEDEADYYCQSYDRSGSKVFGTGTKLTVL , thanks.
OUT: 9.52

IN: Let me know recorded pKd for ADI-20983 (antibody, V domains shown) VH: EVQLVESGGALVQPGGSLRLSCSASGFTFSSYAMHWVRQAPGKGLEYVSAINNFGDKTYYTDSVEGRFTISRDNSKKTLYLQMSSLRPEDTAVYYCVKDRGYCSSPSCYAVPYYYFYGMDVWGQGTTVTVSS VL: EIVMTQSPSSLSASVGDRVTITCQASQGISNYLHWYQQKPGKAPKLLIYDASNLEAGVPSRFSGSGAGTDFTFTISSLQPEDVATYYCQHYNNLPFTFGPGTKVDIK , thanks.
OUT: 9.67

IN: Let me know recorded pKd for ADI-21031 (antibody, V domains shown) VH: EVQLVESGPGLVKPSQTLSLTCTVSGGSISNSNYFWSWIRQPAGKGLEWIGRVHSSGTTSYNPSLKSRITISVDASESQFSLNLTSVTAADTAIYYCARDSSDWGLGWYFDLWGRGTLVTVSS VL: ETTLTQSPATLSLSPGERATLSCRASQSVTFYLAWYQHKPGQAPRLLIFDASKRATGIPARFSGSGSGTDFTLTISSLEPEDFALYYCQQRSDWPQTFGQGTKVDIK , thanks.
OUT: 8.97
